system name: anti-A049 antibody (FactorXII PET)
protocol details: peptide competition assay in 6% BSA
Where no end group is shown, it is not given here.
value type: pIC50
Quick note: pIC50 means taking -log10 of the concentration in moles per liter.

Prompt: # get_value(readout='pIC50', item= CVAGWGHQFEGAEEY-NH2 [A049 peptide (FactorXII), …-NH2] )
Completion: 7.82

Origin of values: patent US20060014212A1
